- Tested on: rape
- Assay Summary: Test B pre/postemergence rape
- Assay type: in vivo, Brassica napus
- Measurement Parameters: Preemergence, Rate 500 g/ha; scale 0 to 10 (0 no effect, 10 complete control)
Below, each entry is listed alongside its reported Rape plant response rating.
# answer = number (no unit)

Recorded results for 4 compounds are shown here.
> print(dat)
                               smiles.input  data.value
1  C=CCn1c(=O)on(C(=O)N(c2ccc(F)cc2)C2CC2)c1=O           0
2  CC(C)N(C(=O)n1oc(=O)n(N(C)C)c1=O)c1ccc(F)cc1          10
3  CC(C)N(C(=O)n1oc(=O)n(-c2cnn(C)c2)c1=O)c1ccccc1           0
4  CC(C)N(C(=O)n1oc(=O)n([C@@H](C)c2ccccc2)c1=O)c1ccc(F)cc1           5

Now let's try a different one.
Give the reported Rape plant response rating for Cc1nsc(C)c1-n1c(=O)on(C(=O)N(c2ccc(Cl)cc2)C(C)C)c1=O (system: rape).
0
